Origin of values: ChEMBL document CHEMBL1146661

Please provide measured Selectivity for the entries that follow.
Species on record: Rattus norvegicus
protocol_text: Relative affinity for dopamine transporter and muscarinic acetylcholine M1 receptor
No unit in the answer, please; the number alone is enough.

Consider the compound COS(=O)(=O)[C@H]1CC2C[C@H](OC(c3ccc(F)cc3)c3ccc(F)cc3)CC1N2C (stereo partly drawn) and give its measured Selectivity.
8

Consider the compound CN1C2CC(OC(c3ccc(F)cc3)c3ccc(F)cc3)CC1[C@@H](O)C2 (stereo partly drawn) and give its measured Selectivity.
8

Consider the compound COC(=O)[C@H]1CC2C[C@H](OC(c3ccc(F)cc3)c3ccc(F)cc3)CC1N2C (stereo partly drawn) and give its measured Selectivity.
8
